The measurements presented in this section are drawn from PubChem BioAssay AID1195.

# System: human maximum recommended daily dose, FDA database
# experimental-details: DSSTox (FDAMDD) FDA Maximum (Recommended) Daily Dose Database
# condition: TherapeuticCategory: anticholinergic; mydriatic; antispasmodic; hits give low values
readout-kind: maximum recommended daily dose (mmol/kg-bw/day)
Give a plain numeric answer without units written out.

Task: May I ask what maximum recommended daily dose (mmol/kg-bw/day) has been recorded for CN1[C@@H]2CC[C@H]1CC(OC(=O)C(CO)c1ccccc1)C2 (stereo partly specified) ?
Result: 4.6e-06

----------
# System: human maximum recommended daily dose, FDA database
# experimental-details: DSSTox (FDAMDD) FDA Maximum (Recommended) Daily Dose Database
# condition: TherapeuticCategory: ammonia detoxicant; diagnostic aid; hits give low values
readout-kind: maximum recommended daily dose (mmol/kg-bw/day)
Give a plain numeric answer without units written out.

Task: May I ask what maximum recommended daily dose (mmol/kg-bw/day) has been recorded for NC(N)=NCCCC(N)C(=O)O (stereo unspecified) ?
Result: 2.87
